- targetEntity: full-length beta-Catenin (Uniprot ID P35222) (Homo sapiens (Human)) (UniProt P35222)
- Sequence (P35222 2-781 limits assumed): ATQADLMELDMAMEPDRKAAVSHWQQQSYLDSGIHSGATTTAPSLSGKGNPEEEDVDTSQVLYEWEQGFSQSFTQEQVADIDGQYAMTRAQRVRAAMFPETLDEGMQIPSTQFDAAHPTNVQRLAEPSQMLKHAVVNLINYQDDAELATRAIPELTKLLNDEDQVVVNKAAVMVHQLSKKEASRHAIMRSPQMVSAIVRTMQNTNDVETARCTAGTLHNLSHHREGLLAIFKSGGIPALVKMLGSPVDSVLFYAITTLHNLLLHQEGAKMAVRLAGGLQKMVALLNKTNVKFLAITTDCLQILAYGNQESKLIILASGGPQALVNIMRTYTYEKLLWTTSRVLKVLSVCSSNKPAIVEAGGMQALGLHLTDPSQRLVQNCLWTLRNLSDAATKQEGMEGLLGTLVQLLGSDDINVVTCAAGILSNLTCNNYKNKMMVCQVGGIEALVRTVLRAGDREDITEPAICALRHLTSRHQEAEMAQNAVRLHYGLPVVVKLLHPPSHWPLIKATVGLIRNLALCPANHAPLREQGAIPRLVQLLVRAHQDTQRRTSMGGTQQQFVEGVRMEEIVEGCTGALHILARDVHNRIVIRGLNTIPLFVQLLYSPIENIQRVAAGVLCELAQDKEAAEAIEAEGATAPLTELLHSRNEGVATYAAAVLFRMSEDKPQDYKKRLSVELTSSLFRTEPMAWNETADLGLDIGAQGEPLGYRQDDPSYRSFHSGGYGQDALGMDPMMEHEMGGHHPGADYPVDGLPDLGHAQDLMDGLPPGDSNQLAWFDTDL
- assayText: fluorescence polarization competition; 10 nM full-length beta-catenin + 10 nM 5FAM-TCF4(10-53) probe; peptide titrated 10 uM to 5 nM
pIC50: −log10 of the molar value. Starred links: 1 amine or outer side, 2 acyl side, 3 side chain; linkers in the order of their positions; H or OH if unused. Positions of bridges follow the written chain, without caps; N, C: chain ends. Non-standard residues stand in square brackets, D forms with d. Primed or numbered codes have the meaning given here. PyrS2″ = (S)-3-amino-1-((pent-4-en-1-yloxy)carbonyl)pyrrolidine-3-carboxylic acid (stapling residue), C=CCCCOC(=O)N1CC[C@@](N[*:1])(C(=O)[*:2])C1; B5(4) = 2,2-bis(4-pentenyl)glycine = 2-amino-2-(pent-4-en-1-yl)hept-6-enoic acid (stitching residue), C=CCCCC(CCCC=C)(N[*:1])C(=O)[*:2]; B5(31) = 2-amino-2-(pent-4-en-1-yl)hept-6-enoic acid (bis-pentenylglycine, stitching residue), C=CCCCC(CCCC=C)(N[*:1])C(=O)[*:2]; B5(3) = 2,2-bis(4-pentenyl)glycine (stitching residue), C=CCCCC(CCCC=C)(N[*:1])C(=O)[*:2]; Bta = N[C@@H](Cc1csc2ccccc12)C(=O)O; Lys(iPr) = CC(C)NCCCC[C@H](N)C(=O)O; αAllylPro = C=CC[C@@]1(C(=O)O)CCCN1; tBuAla = CC(C)(C)C[C@H](N)C(=O)O; 3Thi = N[C@@H](Cc1ccsc1)C(=O)O; Cha = N[C@@H](CC1CCCCC1)C(=O)O; hSer = N[C@@H](CCO)C(=O)O
metricName: pIC50

Example binders with recorded pIC50:
# binder, pIC50
records = [
    ("Ac-[αAllylPro]N[Cha][B5(31)]DH[Lys(iPr)]AFL[PyrS2″]F[Bta]Q-NH2 (staple 1-4, 4-11) [I-2349]", 5.94),
    ("Ac-[αAllylPro]N[Cha][B5(31)]DK[Lys(iPr)]AFL[PyrS2″]F[Bta]Q-NH2 (staple 1-4, 4-11; also: staple isomer, earlier eluting HPLC peak) [I-2346]", 6.37),
    ("Ac-[αAllylPro]N[Cha][B5(4)]DQ[Lys(iPr)]AFL[PyrS2″]F[Bta]A-NH2 (staple 1-4, 4-11) [I-2352]", 6.68),
]

(P) Ac-[αAllylPro]D[tBuAla][B5(31)]NTAAFT[PyrS2″][3Thi][Bta]H-NH2 (staple 1-4, 4-11) [I-2337]
(Q) Ac-[αAllylPro]N[Cha][B5(31)]D[hSer][Lys(iPr)]AFL[PyrS2″]F[Bta]Q-NH2 (staple 1-4, 4-11) [I-2345]
(R) Ac-[αAllylPro]N[Cha][B5(3)]DQ[hSer]AFL[PyrS2″]F[Bta]Q-NH2 (staple 1-4, 4-11; also: earlier eluting isomer, configuration not given here) [I-2354]
(S) Ac-[αAllylPro]N[Cha][B5(31)]DH[Lys(iPr)]AFL[PyrS2″]F[Bta]Q-NH2 (staple 1-4, 4-11; also: staple isomer, earlier eluting HPLC peak) [I-2348]
(T) Ac-[αAllylPro]N[Cha][B5(31)]D[hSer][Lys(iPr)]AFL[PyrS2″]F[Bta]Q-NH2 (staple 1-4, 4-11; also: staple isomer, earlier eluting HPLC peak) [I-2344]
Hi! Can you put these in order of pIC50, lowest number first? Use the labels to give the requested order.
Q, T, P, S, R
